B1: Retinoblastoma-associated protein (Homo sapiens), P06400 (parent)
chain: MPPKTPRKTAATAAAAAAEPPAPPPPPPPEEDPEQDSGPEDLPLVRLEFEETEEPDFTALCQKLKIPDHVRERAWLTWEKVSSVDGVLGGYIQKKKELWGICIFIAAVDLDEMSFTFTELQKNIEISVHKFFNLLKEIDTSTKVDNAMSRLLKKYDVLFALFSKLERTCELIYLTQPSSSISTEINSALVLKVSWITFLLAKGEVLQMEDDLVISFQLMLCVLDYFIKLSPPMLLKEPYKTAVIPINGSPRTPRRGQNRSARIAKQLENDTRIIEVLCKEHECNIDEVKNVYFKNFIPFMNSLGLVTSNGLPEVENLSKRYEEIYLKNKDLDARLFLDHDKTLQTDSIDSFETQRTPRKSNLDEEVNVIPPHTPVRTVMNTIQQLMMILNSASDQPSENLISYFNNCTVNPKESILKRVKDIGYIFKEKFAKAVGQGCVEIGSQRYKLGVRLYYRVMESMLKSEEERLSIQNFSKLLNDNIFHMSLLACALEVVMATYSRSTSQNLDSGTDLSFPWILNVLNLKAFDFYKVIESFIKAEGNLTREMIKHLERCEHRIMESLAWLSDSPLFDLIKQSKDREGPTDHLESACPLNLPLQNNHTAADMYLSPVRSPKKKGSTTRVNSTANAETQATSAFQTQKPLKSTSLSLFYKKVYRLAYLRLNTLCERLLSEHPELEHIIWTLFQHTLQNEYELMRDRHLDQIMMCSMYGICKVKNIDLKFKIIVTAYKDLPHAVQETFKRVLIKEEEYDSIIVFYNSVFMQRLKTNILQYASTRPPTLSPIPHIPRSPYKFPSSPLRIPGGNIYISPLKSPYKISEGLPTPTKMTPRSRILVSIGESFGTSEKFQKINQMVCNSDRVLKRSAEGSNPPKPLKKLRFDIEGSDEADGSKHLPGESKFQQKLAEMTSTRTRMQKQKMNDSMDTSNKEEK

- Variants of: B1
- Condition parameters: with e2f1_human E2F1, Q01094
- Sequence (Q01094 whole entry): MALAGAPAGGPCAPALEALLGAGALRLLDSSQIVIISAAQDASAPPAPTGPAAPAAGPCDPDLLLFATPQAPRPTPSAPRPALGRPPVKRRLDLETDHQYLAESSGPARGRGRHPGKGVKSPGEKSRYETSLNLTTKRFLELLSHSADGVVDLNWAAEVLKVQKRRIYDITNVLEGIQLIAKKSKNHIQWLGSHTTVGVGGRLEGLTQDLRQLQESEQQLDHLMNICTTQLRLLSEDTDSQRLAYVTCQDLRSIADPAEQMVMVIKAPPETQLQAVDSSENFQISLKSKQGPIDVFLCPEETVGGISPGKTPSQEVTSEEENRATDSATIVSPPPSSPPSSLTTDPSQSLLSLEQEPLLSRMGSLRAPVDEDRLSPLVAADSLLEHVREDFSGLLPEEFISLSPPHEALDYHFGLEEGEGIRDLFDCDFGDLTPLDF

| Sequence variant | effect of a mutation on the interaction |
| --- | --- |
| Q444L | with no effect |
| T638S | with no effect |

Reference source for all entries: IntAct's records for PubMed 39938803
